procedure details: Metabolic stability in rat liver microsomes at 1 uM after 20 mins in presence of NADPH by HPLC analysis
Type: ADME, microsome
measured metric: remaining at 20 min, 1 µM (µL/min/mg)

> print(dat)
                              smiles.string  measured.number
1  Cc1ccc(C(=O)Nc2cc(-c3c(-c4ccc(F)c(C)c4)nc4cccnn34)ccn2)cn1               53
2  Cc1cc(-c2nc3cccnn3c2-c2ccnc(NC(=O)c3ccncc3)c2)ccc1F               75
3  Cc1cc(-c2nc3cccnn3c2-c2ccnc(NC(=O)c3ccc(C)[n+]([O-])c3)c2)ccc1F               23
4  Cc1cc(-c2nc3cccnn3c2-c2ccnc(NC(=O)c3cccnc3)c2)ccc1F               71
5  Cc1cc(-c2nc3cccnn3c2-c2ccnc(NC(=O)c3cc[n+]([O-])c(C)c3)c2)ccc1F               16
6  Cc1cc(C(=O)Nc2cc(-c3c(-c4ccc(F)c(C)c4)nc4cccnn34)ccn2)ccn1               65

These measurements were taken from ChEMBL document CHEMBL4219055.
